Molecular target: T1, Apelin Receptor (APJ) stably overexpressed in CHO-K1 AGTRL1 Gi cells (human, UniProt P35414 1-380)
T1 sequence (looked up): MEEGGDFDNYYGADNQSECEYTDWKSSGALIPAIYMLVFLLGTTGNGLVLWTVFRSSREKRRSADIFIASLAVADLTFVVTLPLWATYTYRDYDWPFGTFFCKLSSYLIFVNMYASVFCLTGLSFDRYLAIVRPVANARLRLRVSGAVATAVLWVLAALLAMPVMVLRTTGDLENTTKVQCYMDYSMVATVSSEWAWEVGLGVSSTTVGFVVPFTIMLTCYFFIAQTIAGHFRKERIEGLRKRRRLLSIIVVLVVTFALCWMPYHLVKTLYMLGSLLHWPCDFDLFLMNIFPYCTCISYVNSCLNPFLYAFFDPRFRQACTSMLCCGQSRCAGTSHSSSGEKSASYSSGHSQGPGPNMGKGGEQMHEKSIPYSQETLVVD
Assay: cell-based or functional assay
Non-standard residues stand in square brackets, D forms with d. No end group written: not given here.
reported_endpoint: cAMP levels, Percent of Pyr-Apelin-13 Control Activity (10 µM peptide, 10 µM forskolin)

Study these solved cases before continuing.
RRLLGLVEQSLCG[dA] [SEQ ID NO 40] = 19 % of Pyr-Apelin-13 control
RRMMGMVFQSL [SEQ ID NO 60] = 16 % of Pyr-Apelin-13 control
RREMVYQCLEG[dA] [SEQ ID NO 26] = 29 % of Pyr-Apelin-13 control
MMGMVF [SEQ ID NO 45] = 10 % of Pyr-Apelin-13 control
MMGMVFQSL [SEQ ID NO 48] = 15 % of Pyr-Apelin-13 control

# return cAMP levels, Percent of Pyr-Apelin-13 Control Activity (10 µM peptide, 10 µM forskolin) for each item in the list
1. RRMEVYQCLCG[dA] (cysteine pairing not given here) [SEQ ID NO 31]
2. RXMMGMVFQSLCGA ((AIB) aminoisobutyric acid at position 2; (dA) D-alanine at position 14) [SEQ ID NO 34]

Result string:
2 % of Pyr-Apelin-13 control
61 % of Pyr-Apelin-13 control

# return cAMP levels, Percent of Pyr-Apelin-13 Control Activity (10 µM peptide, 10 µM forskolin) for each item in the list
1. RRMMGM [SEQ ID NO 55]
2. RRLLGLVFQSLEG[dA] [SEQ ID NO 41]
3. RRMMGMVFQ [SEQ ID NO 58]
4. RRMVFQCLEG[dA] [SEQ ID NO 23]
5. MMGMV [SEQ ID NO 44]

Result string:
-7 % of Pyr-Apelin-13 control
15 % of Pyr-Apelin-13 control
5 % of Pyr-Apelin-13 control
-4 % of Pyr-Apelin-13 control
5 % of Pyr-Apelin-13 control

# return cAMP levels, Percent of Pyr-Apelin-13 Control Activity (10 µM peptide, 10 µM forskolin) for each item in the list
1. RRMMGMVFQELCG[dA] [SEQ ID NO 13]
2. RRMVYQCLEG[dA] [SEQ ID NO 24]
3. RRMMGMVFQCLCG[dA] (cysteine pairing not given here) [SEQ ID NO 8]
4. KRRMMGMVFQSLCGA ((PEG12) on the N-terminal K (position 1); (dA) D-alanine at position 15) [SEQ ID NO 36]
5. RRMEVYQCLEG[dA] [SEQ ID NO 32]
6. RRMGYQCLEG[dA] [SEQ ID NO 28]
7. RRMMGMVFQSLEG[dA] [SEQ ID NO 39]

Result string:
["49 % of Pyr-Apelin-13 control", "16 % of Pyr-Apelin-13 control", "64 % of Pyr-Apelin-13 control", "101 % of Pyr-Apelin-13 control", "4 % of Pyr-Apelin-13 control", "3 % of Pyr-Apelin-13 control", "-13 % of Pyr-Apelin-13 control"]
